test: Dithiocarbamate (DTC) stapling of unprotected peptides: Lys side-chain amine + CS2 (Et3N) gives Lys-NH-C(=S)S-, then intramolecular thia-Michael addition to dehydroalanine (Dha, made beforehand from Cys with 2,5-dibromohexanediamide and HPLC-purified); conditions: the molecule shown is the open-chain precursor, 21-membered ring, ethanol/Et3N/CS2 10:1:1 v/v
ASSAY_ENDPOINT: ring closure, isolated yield (%)
Numbers only, in %.

Please report the measured ring closure, isolated yield for "C=C(NC(=O)[C@H](Cc1c[nH]c2ccccc12)NC(=O)[C@H](Cc1ccc(O)cc1)NC(=O)[C@H](CCC(N)=O)NC(=O)[C@H](CCCCNC(=S)S)NC(=O)[C@H](Cc1ccccc1)NC(=O)[C@H](CO)NC(=O)[C@@H](NC(C)=O)[C@@H](C)O)C(=O)N[C@@H](CC(C)C)C(=O)N[C@@H](CC(C)C)C(=O)N[C@@H](CO)C(=O)N[C@@H](CCCNC(=N)N)C(N)=O"
46

* * *

assay: circular dichroism; settings: phosphate buffer (PB); pH 7.2; 20 °C; 10-50 uM
Answer each item with its documented helicity.
Numbers only, in %.

Consider the following illustrative entries.
>  <STRUCTURE>
CC(=O)N[C@H](C(=O)N[C@H]1CCCCNC(=S)SC[C@@H](C(=O)N[C@@H](Cc2c[nH]c3ccccc23)C(=O)N[C@@H](CC(N)=O)C(=O)N[C@@H](CC(C)C)C(=O)N[C@@H](CC(C)C)C(=O)N[C@@H](CO)C(=O)N2CCC[C@H]2C(N)=O)NC(=O)[C@H](CCC(=O)O)NC(=O)[C@H](C)NC(=O)[C@H](Cc2ccccc2)NC1=O)[C@@H](C)O

>  <ASSAY_ENDPOINT>
helicity

>  <NUMERIC_RESULT>
15.3

$$$$
>  <STRUCTURE>
CC(=O)N[C@H](C(=O)N[C@@H](CO)C(=O)N[C@@H](Cc1ccccc1)C(=O)N[C@@H](CCCCN)C(=O)N[C@@H](CCC(N)=O)C(=O)N[C@@H](Cc1ccc(O)cc1)C(=O)N[C@@H](Cc1c[nH]c2ccccc12)C(=O)N[C@@H](CS)C(=O)N[C@@H](CC(C)C)C(=O)N[C@@H](CC(C)C)C(=O)N[C@@H](CO)C(=O)N[C@@H](CCCNC(=N)N)C(N)=O)[C@@H](C)O

>  <ASSAY_ENDPOINT>
helicity

>  <NUMERIC_RESULT>
16.6

$$$$

Specify reported helicity for the compound shown: "CC(=O)N[C@H](C(=O)N[C@@H](CO)C(=O)N[C@@H](Cc1ccccc1)C(=O)N[C@H]1CCCCNC(=S)SC[C@@H](C(=O)N[C@@H](CC(C)C)C(=O)N[C@@H](CC(C)C)C(=O)N[C@@H](CO)C(=O)N2CCC[C@H]2C(N)=O)NC(=O)[C@H](Cc2c[nH]c3ccccc23)NC(=O)[C@H](Cc2ccc(O)cc2)NC(=O)[C@H](CCC(=O)O)NC1=O)[C@@H](C)O"
39.3

* * *

assay: circular dichroism; details: phosphate buffer (PB); pH 7.2; 20 °C; 10-50 uM
Hi there, I'd appreciate the recorded helicity for every entry that follows.
Numbers only, in %.

Observe how each entry below is paired with its result.
>  <MOLECULE>
CC(=O)N[C@H](C(=O)N[C@H]1CSC(=S)NCCCC[C@@H](C(=O)N[C@@H](Cc2c[nH]c3ccccc23)C(=O)N[C@@H](CC(N)=O)C(=O)N[C@@H](CC(C)C)C(=O)N[C@@H](CC(C)C)C(=O)N[C@@H](CO)C(=O)N2CCC[C@H]2C(N)=O)NC(=O)[C@H](CCC(=O)O)NC(=O)[C@H](C)NC(=O)[C@H](Cc2ccccc2)NC1=O)[C@@H](C)O

>  <ASSAY_ENDPOINT>
helicity

>  <NUMERIC_RESULT>
4.81

$$$$
>  <MOLECULE>
CC(=O)N[C@H](C(=O)N[C@@H](CO)C(=O)N[C@@H](Cc1ccccc1)C(=O)N[C@@H](C)C(=O)N[C@H]1CSC(=S)NCCCC[C@@H](C(=O)N[C@@H](CC(C)C)C(=O)N[C@@H](CO)C(=O)N2CCC[C@H]2C(N)=O)NC(=O)[C@H](CC(N)=O)NC(=O)[C@H](Cc2c[nH]c3ccccc23)NC(=O)[C@H](Cc2ccc(O)cc2)NC1=O)[C@@H](C)O

>  <ASSAY_ENDPOINT>
helicity

>  <NUMERIC_RESULT>
9.58

$$$$

Okay, next one:
Given CC(=O)N[C@H]1CCCCNC(=S)SC[C@@H](C(=O)N[C@@H](Cc2ccc(O)cc2)C(=O)N[C@@H](Cc2c[nH]c3ccccc23)C(=O)N[C@@H](CC(N)=O)C(=O)N[C@@H](CC(C)C)C(=O)N[C@@H](CC(C)C)C(=O)N[C@@H](CO)C(=O)N2CCC[C@H]2C(N)=O)NC(=O)[C@H](C)NC(=O)[C@H](Cc2ccccc2)NC(=O)[C@H](CO)NC1=O [PMI(1,5)-a] , respond with its helicity.
6.5

* * *

experiment: circular dichroism; conditions: phosphate buffer (PB); pH 7.2; 20 °C; 10-50 uM
For each record, write down the corresponding helicity.

Past entries and their recorded results:
>  <STRUCTURE>
CC(=O)N[C@H]1CSC(=S)NCCCC[C@@H](C(=O)N[C@@H](Cc2ccc(O)cc2)C(=O)N[C@@H](Cc2c[nH]c3ccccc23)C(=O)N[C@@H](CC(N)=O)C(=O)N[C@@H](CC(C)C)C(=O)N[C@@H](CC(C)C)C(=O)N[C@@H](CO)C(=O)N2CCC[C@H]2C(N)=O)NC(=O)[C@H](C)NC(=O)[C@H](Cc2ccccc2)NC(=O)[C@H](CO)NC1=O

>  <helicity>
8.38%

$$$$
>  <STRUCTURE>
CC(=O)N[C@H](C(=O)N[C@@H](CO)C(=O)N[C@@H](Cc1ccccc1)C(=O)N[C@@H](C)C(=O)N[C@@H](CCC(=O)O)C(=O)N[C@@H](Cc1ccc(O)cc1)C(=O)N[C@@H](Cc1c[nH]c2ccccc12)C(=O)N[C@H]1CSC(=S)NCCCC[C@@H](C(N)=O)NC(=O)[C@H](CO)NC(=O)[C@H](CC(C)C)NC(=O)[C@H](CC(C)C)NC1=O)[C@@H](C)O

>  <helicity>
0.23%

$$$$
>  <STRUCTURE>
CC(=O)N[C@H](C(=O)N[C@@H](CO)C(=O)N[C@@H](Cc1ccccc1)C(=O)N[C@H]1CSC(=S)NCCCC[C@@H](C(=O)N[C@@H](CC(C)C)C(=O)N[C@@H](CC(C)C)C(=O)N[C@@H](CO)C(=O)N2CCC[C@H]2C(N)=O)NC(=O)[C@H](Cc2c[nH]c3ccccc23)NC(=O)[C@H](Cc2ccc(O)cc2)NC(=O)[C@H](CCC(=O)O)NC1=O)[C@@H](C)O

>  <helicity>
9.15%

$$$$
>  <STRUCTURE>
CC(=O)N[C@H](C(=O)N[C@@H](CO)C(=O)N[C@@H](Cc1ccccc1)C(=O)N[C@@H](C)C(=O)N[C@@H](CCC(=O)O)C(=O)N[C@@H](Cc1ccc(O)cc1)C(=O)N[C@@H](Cc1c[nH]c2ccccc12)C(=O)N[C@H]1CCCCNC(=S)SC[C@@H](C(N)=O)NC(=O)[C@H](CO)NC(=O)[C@H](CC(C)C)NC(=O)[C@H](CC(C)C)NC1=O)[C@@H](C)O

>  <helicity>
43.3%

$$$$

// for each compound below, give its helicity
1. CC(=O)N[C@H](C(=O)N[C@@H](CO)C(=O)N[C@@H](Cc1ccccc1)C(=O)N[C@H]1CCCCNC(=S)SC[C@@H](C(=O)N[C@@H](CC(C)C)C(=O)N[C@@H](CC(C)C)C(=O)N[C@@H](CO)C(=O)N[C@@H](CCCNC(=N)N)C(N)=O)NC(=O)[C@H](Cc2c[nH]c3ccccc23)NC(=O)[C@H](Cc2ccc(O)cc2)NC(=O)[C@H](CCC(N)=O)NC1=O)[C@@H](C)O
2. CC(=O)N[C@H](C(=O)N[C@@H](CO)C(=O)N[C@@H](Cc1ccccc1)C(=O)N[C@@H](C)C(=O)N[C@H]1CCCCNC(=S)SC[C@@H](C(=O)N[C@@H](CC(C)C)C(=O)N[C@@H](CO)C(=O)N2CCC[C@H]2C(N)=O)NC(=O)[C@H](CC(N)=O)NC(=O)[C@H](Cc2c[nH]c3ccccc23)NC(=O)[C@H](Cc2ccc(O)cc2)NC1=O)[C@@H](C)O

1: 62.2%; 2: 6.88%

* * *

Consider the following compounds; for each one, report its ring closure, isolated yield.
test: Dithiocarbamate (DTC) stapling of unprotected peptides: Lys side-chain amine + CS2 (Et3N) gives Lys-NH-C(=S)S-, then intramolecular thia-Michael addition to dehydroalanine (Dha, made beforehand from Cys with 2,5-dibromohexanediamide and HPLC-purified); conditions: the molecule shown is the open-chain precursor, 21-membered ring, ethanol/Et3N/CS2 10:1:1 v/v
One number for each entry, in %.

Here are 2 compounds together with their reported answers.
>  <STRUCTURE>
C=C(NC(=O)[C@H](Cc1ccccc1)NC(=O)[C@H](CO)NC(=O)[C@@H](NC(C)=O)[C@@H](C)O)C(=O)N[C@@H](CCC(=O)O)C(=O)N[C@@H](Cc1ccc(O)cc1)C(=O)N[C@@H](Cc1c[nH]c2ccccc12)C(=O)N[C@@H](CCCCNC(=S)S)C(=O)N[C@@H](CC(C)C)C(=O)N[C@@H](CC(C)C)C(=O)N[C@@H](CO)C(=O)N1CCC[C@H]1C(N)=O

>  <ring closure, isolated yield [%]>
33

$$$$
>  <STRUCTURE>
C=C(NC(=O)[C@@H](NC(C)=O)[C@@H](C)O)C(=O)N[C@@H](Cc1ccccc1)C(=O)N[C@@H](C)C(=O)N[C@@H](CCC(=O)O)C(=O)N[C@@H](CCCCNC(=S)S)C(=O)N[C@@H](Cc1c[nH]c2ccccc12)C(=O)N[C@@H](CC(N)=O)C(=O)N[C@@H](CC(C)C)C(=O)N[C@@H](CC(C)C)C(=O)N[C@@H](CO)C(=O)N1CCC[C@H]1C(N)=O

>  <ring closure, isolated yield [%]>
39

$$$$

For "C=C(NC(C)=O)C(=O)N[C@@H](CO)C(=O)N[C@@H](Cc1ccccc1)C(=O)N[C@@H](C)C(=O)N[C@@H](CCCCNC(=S)S)C(=O)N[C@@H](Cc1ccc(O)cc1)C(=O)N[C@@H](Cc1c[nH]c2ccccc12)C(=O)N[C@@H](CC(N)=O)C(=O)N[C@@H](CC(C)C)C(=O)N[C@@H](CC(C)C)C(=O)N[C@@H](CO)C(=O)N1CCC[C@H]1C(N)=O" , write its ring closure, isolated yield.
37

Entry source: paper PMC6357863
